Test system: Human alphaherpesvirus 3
Experiment Summary: microbe, parasite or virus in culture
Setup Conditions: Human alphaherpesvirus 3, 07-1, HEL
Rule: measured EC50 below 20 µM gets t; anything equal to or greater than 20 µM gets f.

The examples below pair each entry with its known result.
Structure String: CCCCc1ccc(-n2cc(-c3cn([C@H]4C[C@H](O)[C@@H](CO)O4)c(=O)[nH]c3=O)nn2)cc1
Class Assignment: f
--
Structure String: O=c1[nH]c(=O)n([C@H]2C[C@H](O)[C@@H](CO)O2)cc1/C=C/Br
Class Assignment: f
--
Structure String: Nc1nc2c(ncn2COCCO)c(=O)[nH]1
Class Assignment: t
--
Structure String: O=c1[nH]c(=O)n([C@H]2C[C@H](O)[C@@H](CO)O2)cc1-c1cn(-c2ccccc2)nn1
Class Assignment: f
--
Structure String: CC(C)(C)c1ccc(-n2cc(-c3cn([C@H]4C[C@H](O)[C@@H](CO)O4)c(=O)[nH]c3=O)nn2)cc1
Class Assignment: f
--
Structure String: CC(C)c1ccc(-n2cc(-c3cn([C@H]4C[C@H](O)[C@@H](CO)O4)c(=O)[nH]c3=O)nn2)cc1
Class Assignment: f
--
Structure String: CSc1ccc(-n2cc(-c3cn([C@H]4C[C@H](O)[C@@H](CO)O4)c(=O)[nH]c3=O)nn2)cc1
Class Assignment: f
--
Structure String: O=c1[nH]c(=O)n([C@H]2C[C@H](O)[C@@H](CO)O2)cc1-c1cn(-c2cc(F)cc(F)c2)nn1
Class Assignment: f
--
Structure String: O=c1[nH]c(=O)n([C@H]2C[C@H](O)[C@@H](CO)O2)cc1-c1cn(-c2ccc(Oc3ccccc3)cc2)nn1
Class Assignment: t
--
Structure String: O=c1[nH]c(=O)n([C@H]2C[C@H](O)[C@@H](CO)O2)cc1-c1cn(-c2c(F)cccc2F)nn1
Class Assignment: t

Then this compound:
Threshold test, EC50 < 20 µM: O=c1[nH]c(=O)n([C@H]2C[C@H](O)[C@@H](CO)O2)cc1-c1cn(-c2ccc(OC(F)(F)F)cc2)nn1
f

---

I'd appreciate it if you could supply MCC at 72 h values for the items below.
Experiment Summary: in vitro
Setup Conditions: human, HEL cells

Structure String: O=c1[nH]c(=O)n([C@H]2C[C@H](O)[C@@H](CO)O2)cc1-c1cn(-c2ccc(Cl)cc2)nn1
Result: > 240 µM
--
Structure String: Nc1nc2c(ncn2COCCO)c(=O)[nH]1
Result: > 50 µM
--
Structure String: CC(C)c1ccc(-n2nncc2-c2cn([C@H]3C[C@H](O)[C@@H](CO)O3)c(=O)[nH]c2=O)cc1
Result: > 100 µM

Field request: MCC at 72 h | item: O=c1[nH]c(=O)n([C@H]2C[C@H](O)[C@@H](CO)O2)cc1-c1cnnn1-c1c(F)cccc1F
> 100 µM

---

Experiment Summary: in vitro
Setup Conditions: human, HEL cells
I'd appreciate it if you could supply MCC at 72 h values for the items below.

Below: 6 molecules and their reported MCC at 72 h.
Structure String: O=c1[nH]c(=O)n([C@H]2C[C@H](O)[C@@H](CO)O2)cc1-c1cn(-c2ccc(Br)cc2)nn1
Measured Parameter: MCC at 72 h
Result: ≥ 44 µM

Structure String: O=c1[nH]c(=O)n([C@H]2C[C@H](O)[C@@H](CO)O2)cc1-c1cnnn1-c1ccc(Oc2ccccc2)cc1
Measured Parameter: MCC at 72 h
Result: > 100 µM

Structure String: O=c1[nH]c(=O)n([C@H]2C[C@H](O)[C@@H](CO)O2)cc1-c1cn(-c2ccccc2)nn1
Measured Parameter: MCC at 72 h
Result: 270 µM

Structure String: O=c1[nH]c(=O)n([C@H]2C[C@H](O)[C@@H](CO)O2)cc1-c1cn(-c2ccc(Oc3ccccc3)cc2)nn1
Measured Parameter: MCC at 72 h
Result: 130 µM

Structure String: O=c1[nH]c(=O)n([C@H]2C[C@H](O)[C@@H](CO)O2)cc1/C=C/Br
Measured Parameter: MCC at 72 h
Result: > 250 µM

Structure String: O=c1[nH]c(=O)n([C@H]2C[C@H](O)[C@@H](CO)O2)cc1-c1cn(-c2ccc([N+](=O)[O-])cc2)nn1
Measured Parameter: MCC at 72 h
Result: 240 µM

For each entry beneath this line, provide reported MCC at 72 h.
1. O=c1[nH]c(=O)n([C@H]2C[C@H](O)[C@@H](CO)O2)cc1-c1cn(-c2ccc(OC(F)(F)F)cc2)nn1
2. O=c1[nH]c(=O)n([C@H]2C[C@H](O)[C@@H](CO)O2)cc1-c1cn(-c2c(F)cccc2F)nn1
3. CSc1ccc(-n2cc(-c3cn([C@H]4C[C@H](O)[C@@H](CO)O4)c(=O)[nH]c3=O)nn2)cc1
4. CC(C)(C)c1ccc(-n2cc(-c3cn([C@H]4C[C@H](O)[C@@H](CO)O4)c(=O)[nH]c3=O)nn2)cc1
5. O=c1[nH]c(=O)n([C@H]2C[C@H](O)[C@@H](CO)O2)cc1-c1cn(-c2cc(F)cc(F)c2)nn1

["> 220 µM", "≥ 10 µM", "> 230 µM", "230 µM", "220 µM"]

For each entry beneath this line, provide reported MCC at 72 h.
1. NC(=O)c1ncn([C@@H]2O[C@H](CO)[C@@H](O)[C@H]2O)n1
2. Nc1ccn(C[C@@H](CO)OCP(=O)(O)O)c(=O)n1
3. CC(C)c1ccc(-n2cc(-c3cn([C@H]4C[C@H](O)[C@@H](CO)O4)c(=O)[nH]c3=O)nn2)cc1
4. O=c1[nH]c(=O)n([C@H]2C[C@H](O)[C@@H](CO)O2)cc1-c1cnnn1-c1ccc(Br)cc1
5. CCCCc1ccc(-n2cc(-c3cn([C@H]4C[C@H](O)[C@@H](CO)O4)c(=O)[nH]c3=O)nn2)cc1
6. Nc1nc2c(ncn2COC(CO)CO)c(=O)[nH]1

1. > 250 µM
2. > 250 µM
3. > 240 µM
4. > 100 µM
5. 230 µM
6. > 250 µM
